System: rat liver microsomes
Assay: Metabolic stability in rat liver microsomes (RLM)
Settings: RLM; 60 min; Table 2, four test articles
value.type: % Remaining of Initial, 60 min (%)

compound | test.system | value.type | reported.result
CN(C)CCc1c[nH]c2ccccc12 [DMT, reference compound] | rat liver microsomes | % Remaining of Initial, 60 min | 17.4
[2H]C([2H])(c1c[nH]c2ccccc12)C([2H])([2H])N(C)C [DMT-d4] | rat liver microsomes | % Remaining of Initial, 60 min | 34.2
[2H]C([2H])([2H])N(C([2H])([2H])[2H])C([2H])([2H])C([2H])([2H])c1c[nH]c2ccccc12 [DMT-d10] | rat liver microsomes | % Remaining of Initial, 60 min | 39.6
[2H]C([2H])(Cc1c[nH]c2ccccc12)N(C)C [DMT-d2] | rat liver microsomes | % Remaining of Initial, 60 min | 32.0

----------
Test system: rat liver microsomes
Assay: Metabolic stability in rat liver microsomes (RLM)
Settings: RLM; values in square brackets are within 10% difference (assay's accuracy), no deuteration effect
Label yes when RLM, % (half-life as % vs. the related nondeuterated compound) is strictly below 200%; otherwise label no.

given.smiles | cat
[2H]C([2H])([2H])NC([2H])([2H])Cc1c[nH]c2cccc(O)c12 | yes
[2H]C([2H])(Cc1c[nH]c2ccccc12)N(C)CC | yes
[2H]C([2H])(c1c[nH]c2cccc(OC)c12)C([2H])([2H])N(C)C | yes
[2H]C([2H])(Cc1c[nH]c2cccc(OC)c12)N(C)C | yes
[2H]C([2H])([2H])Oc1ccc2[nH]cc(CC([2H])([2H])N(C([2H])([2H])[2H])C([2H])([2H])[2H])c2c1 | no
[2H]c1[nH]c2c([2H])c([2H])c([2H])c([2H])c2c1C([2H])([2H])C([2H])([2H])N(C)C | no
[2H]c1[nH]c2c([2H])c([2H])c([2H])c(O)c2c1CCN(C(C)C)C(C)C | yes
[2H]C([2H])(c1c[nH]c2cccc(OC)c12)C([2H])([2H])N(C)CC | yes
[2H]C([2H])(c1c[nH]c2ccccc12)C([2H])([2H])N(C)CC | yes
[2H]C([2H])(c1c[nH]c2ccc(OC)cc12)C([2H])([2H])N(C)CC | yes
[2H]C([2H])(Cc1c[nH]c2cccc(OC)c12)N(C)CC | yes
[2H]C([2H])(c1c[nH]c2ccc(OC)cc12)C([2H])([2H])N(C)C | yes
